Molecular target: Ataxin-2 (Homo sapiens) (UniProt Q99700)
Sequence (Q99700 whole entry): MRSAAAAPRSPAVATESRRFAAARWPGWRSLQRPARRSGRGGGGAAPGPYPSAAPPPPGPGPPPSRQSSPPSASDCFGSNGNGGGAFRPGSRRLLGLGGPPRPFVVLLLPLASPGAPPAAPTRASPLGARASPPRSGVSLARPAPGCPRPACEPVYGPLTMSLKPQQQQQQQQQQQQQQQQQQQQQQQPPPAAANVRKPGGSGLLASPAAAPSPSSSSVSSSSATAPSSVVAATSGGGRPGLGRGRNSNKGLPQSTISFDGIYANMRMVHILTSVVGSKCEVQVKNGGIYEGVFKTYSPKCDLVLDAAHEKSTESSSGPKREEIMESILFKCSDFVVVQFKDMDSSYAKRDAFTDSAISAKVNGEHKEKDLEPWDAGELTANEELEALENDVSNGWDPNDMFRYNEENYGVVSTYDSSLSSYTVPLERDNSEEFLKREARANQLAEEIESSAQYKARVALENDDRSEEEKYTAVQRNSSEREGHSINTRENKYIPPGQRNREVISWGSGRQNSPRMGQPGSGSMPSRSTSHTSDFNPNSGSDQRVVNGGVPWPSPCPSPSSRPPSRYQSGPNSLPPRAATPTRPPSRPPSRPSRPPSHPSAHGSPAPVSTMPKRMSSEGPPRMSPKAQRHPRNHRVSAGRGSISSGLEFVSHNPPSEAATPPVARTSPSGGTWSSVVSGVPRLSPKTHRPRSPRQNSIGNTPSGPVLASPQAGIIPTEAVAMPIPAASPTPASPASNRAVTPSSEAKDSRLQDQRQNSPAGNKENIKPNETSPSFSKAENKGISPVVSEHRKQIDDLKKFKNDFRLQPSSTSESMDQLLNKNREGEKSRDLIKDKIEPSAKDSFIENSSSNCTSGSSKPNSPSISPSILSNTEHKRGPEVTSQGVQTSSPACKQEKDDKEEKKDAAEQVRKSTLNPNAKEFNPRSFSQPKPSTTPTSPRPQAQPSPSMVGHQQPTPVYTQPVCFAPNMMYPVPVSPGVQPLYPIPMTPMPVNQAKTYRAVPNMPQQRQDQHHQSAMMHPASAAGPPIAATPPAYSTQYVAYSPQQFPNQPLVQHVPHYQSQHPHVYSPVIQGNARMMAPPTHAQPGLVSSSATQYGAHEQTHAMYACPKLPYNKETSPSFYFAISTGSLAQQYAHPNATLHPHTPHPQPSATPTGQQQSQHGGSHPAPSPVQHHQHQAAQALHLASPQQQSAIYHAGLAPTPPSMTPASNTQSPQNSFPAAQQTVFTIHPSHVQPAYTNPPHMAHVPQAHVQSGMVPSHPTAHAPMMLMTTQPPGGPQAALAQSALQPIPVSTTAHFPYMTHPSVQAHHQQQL
Experiment: qHTS for Inhibitors of ATXN expression.
Assay type: functional
Screen size: about 400,000 compounds; about 2,100 (0.53%) were called active. Roughly 14% stayed inconclusive and do not appear here. The rule behind the calls is not given here. What follows is part of a selection rich in actives, with near analogues and random picks from the rest.
Write down the outcome that applies. Available outcomes: 1 (active), -1 (inactive)

Status in this test for COc1ccc(/N=c2\oc3c(OC)cccc3cc2C(=O)NCc2ccco2)c(OC)c1 ?
1

Status in this test for COc1ccc2c3c(cccc13)C(=O)CC2 ?
-1

Status in this test for Cc1cc(C)cc(OCC(=O)NC2CCCc3ccccc32)c1 (stereo unspecified) ?
-1

Status in this test for COc1cccc2cc(C(=O)NCc3ccc(Cl)cc3)c(=O)oc12 ?
-1

Status in this test for COc1cccc2c1C(=O)C=C(C)C2=O ?
-1

Status in this test for O=C1c2ccccc2-c2onc3ccc(Oc4ccccc4)c1c23 ?
1

* * *

Biological target: Ataxin-2 (Homo sapiens) (UniProt Q99700)
Assay: qHTS for Inhibitors of ATXN expression.
Format: functional
Screen size: about 400,000 compounds; about 2,100 (0.53%) were called active. Another 14% or so got no clear call; they are omitted. The full list was thinned out, with actives kept by preference.
MEASUREMENT NAME: Potency

Worked cases, answers included:
COc1ccc(COc2ncnc3ccc(Br)cc23)cc1F = inactive
CCCNS(=O)(=O)c1ccc2nc(NC(=O)c3ccc(F)cc3)sc2c1 = 39.8 µM (active)
Cc1cc(C(F)(F)F)c2c(N)c(C(=O)Nc3cc(C)on3)sc2n1 = inactive
NC(=S)N/N=C1\CCOc2ccc(Cl)cc21 = 22.4 µM (active)
CC(=O)c1cc2ccc(O)cc2oc1=O = inactive

Now consider a different molecule.
Entry CCOc1ccc(NC(=O)COC(=O)CNC(=O)c2ccc(-c3ccccc3)cc2)cc1 ; assay system Ataxin-2 (Homo sapiens) (UniProt Q99700); Potency recorded at inactive

* * *

Molecular target: Ataxin-2 (Homo sapiens)
Assay: qHTS for Inhibitors of ATXN expression.
Type: functional
Among all 400,000 compounds or so, about 2,100 (0.53%) were called active. Roughly 14% stayed inconclusive and do not appear here. The rule behind the calls is not given here. Shown is part of a subset that was picked to be rich in actives.
Write down the outcome that applies. Available outcomes: active, inactive

Status in this test for Cc1c(N(C)S(=O)(=O)c2cccc(C(=O)NCc3cccnc3)c2)c(=O)n(-c2ccccc2)n1C ?
inactive

Status in this test for COCCn1c(SCC(=O)NC2CCCCC2)nnc1-c1ccncc1 ?
inactive

Status in this test for CNC(=O)/C(C#N)=C/c1ccc(-c2ccc(Cl)cc2)o1 ?
inactive

Status in this test for O=C(N/N=C/c1ccc(-c2ccc([N+](=O)[O-])cc2)o1)c1cccnc1 ?
inactive

Status in this test for O=C(C=Cc1ccccc1)CC(c1ccccc1)N1CCOCC1 (stereo unspecified) ?
active

Status in this test for COc1ccccc1CC(=O)NC(=O)c1ccccc1O ?
inactive

Status in this test for Cn1c(=O)oc2cc(S(=O)(=O)N3CCCC3)ccc21 ?
inactive

Status in this test for Cc1ccc(CC2(OCCN(C)C)CCC(C(C)(C)C)CC2)cc1 (stereo unspecified) ?
active

Status in this test for Nc1c(Cl)cc(-c2nc3cc(C(=O)NCCO)ccc3c(O)c2O)cc1Cl ?
inactive

Status in this test for O=C(O)c1cc(/C=C/c2ccc(N3CCOCC3)cc2)nc2ccccc12 ?
inactive

Status in this test for Brc1ccc(OCc2nnnn2-c2ccccc2)cc1 ?
inactive

* * *

Target: Ataxin-2 (Homo sapiens) (UniProt Q99700)
Experiment: qHTS for Inhibitors of ATXN expression.
Type: functional
Among all 400,000 compounds or so, about 2,100 (0.53%) were called active. Roughly 14% stayed inconclusive and do not appear here. This is one part of a sample in which actives are shown more often than they occur.
MEASUREMENT NAME: Potency

Worked cases, answers included:
O=C(Nc1ccccc1)Nc1sccc1-c1nc2ccccc2s1 = inactive
CC(C)CC(N)c1csc(NC(=O)Nc2ccccc2Cc2ccccc2)n1 (stereo unspecified) = 22.4 µM (active)
COc1cccc(/C=C/c2nc(C#N)c(N3CCCCCC3)o2)c1 = inactive
Cc1ccc(C(=O)Nc2nc(C(N)Cc3ccc(C(F)(F)F)cc3)cs2)cc1 (stereo unspecified) = 39.8 µM (active)
CCOC(=O)c1sc(-c2ccc(C(F)(F)F)cc2)nc1O = inactive

According to the records, this compound NC(Cc1ccc(C(F)(F)F)cc1)c1csc(NC(=O)Nc2ccccc2Cc2ccccc2)n1 (stereo unspecified) displays Potency of 35.5 µM (active)

According to the records, this compound CN(c1ccccc1)c1ccc(/C=C/[N+](=O)[O-])cc1 displays Potency of 25.1 µM (active)

According to the records, this compound NC(Cc1ccc(C(F)(F)F)cc1)c1csc(NC(=O)Nc2ccccc2)n1 (stereo unspecified) displays Potency of 35.5 µM (active)

According to the records, this compound Fc1ccc(N2CCN(C(S)=NCc3ccco3)CC2)cc1 displays Potency of inactive

According to the records, this compound Cc1ccc(-c2ocnc2C(=O)Nc2nc(C)cs2)cc1 displays Potency of inactive

According to the records, this compound CCc1ccccc1NC(=O)c1sc2nc(C)cc(C)c2c1N displays Potency of inactive

* * *

Molecular target: Ataxin-2 (Homo sapiens)
Experiment: qHTS for Inhibitors of ATXN expression.
Assay type: functional
Out of some 400,000 compounds screened, about 2,100 (0.53%) were called active. Not shown: some 14% with an inconclusive outcome. How the calls were made is not given here. This is one part of a sample in which actives are shown more often than they occur.
Write down the outcome that applies. Available outcomes: TRUE (active), FALSE (inactive)

Status in this test for O=C(OCc1cn([C@H]2CN(CC3CCCCC3)[C@@H](c3ccc(Cl)cc3)C[C@@H]2O)nn1)c1ccccc1 ?
TRUE

Status in this test for CC(=O)c1cc2c(s1)-c1cc(F)ccc1OC2 ?
FALSE

Status in this test for CCc1c(O)nc2c(c(C)nn2-c2ccccc2)c1C ?
FALSE

Status in this test for CC(C)N1CCC(N2CCN(Cc3cccc4nonc34)CC2CCO)CC1 (configuration not stated) ?
FALSE

Status in this test for COc1cccc(C2C=C(c3ccc(Br)s3)Nc3ncnn32)c1OC (configuration not stated) ?
FALSE

Status in this test for Cc1ccc(CNc2nc(NCC3CC3)nc3ccsc23)c(C)c1 ?
TRUE

Status in this test for COCCN(CCOC)Cc1c(O)ccc2c1O/C(=C\c1ccco1)C2=O ?
FALSE

Status in this test for CCOCCCNC(=O)C(NC(=O)c1ccc2c(c1)OCO2)c1ccc(Cl)cc1 (configuration not stated) ?
FALSE

Status in this test for Oc1cc(-c2nc3ccccc3s2)cc2c1OCCN(Cc1cccn1-c1ccccn1)C2 ?
TRUE

Status in this test for CC(C)c1ccc(C2C(C#N)=C(N)Oc3c2oc(CO)cc3=O)cc1 (configuration not stated) ?
FALSE

Status in this test for O=c1c(-c2nc3ccccc3s2)cccn1Cc1ccc(Cl)c(Cl)c1 ?
FALSE

Status in this test for CCn1cc(CN2CCCC(CNS(=O)(=O)c3cccc4cccnc34)C2)cn1 (configuration not stated) ?
TRUE

Status in this test for CCCSC(=S)c1c(C)nn(-c2ccccc2)c1O ?
TRUE

Status in this test for O=C(NCc1cccs1)c1cc(C2CC2)on1 ?
FALSE

Status in this test for OC1(c2ccc(Cl)c(Cl)c2)C[n+]2ccccc2N1Cc1ccccc1 (configuration not stated) ?
TRUE

Status in this test for COCCCNC(=S)N/N=C/c1ccc(O)cc1O ?
FALSE

Status in this test for CC1(C)CC(=O)c2cnc(N3CCc4ccccc43)nc2C1 ?
FALSE

Status in this test for Cc1cc(N=Nc2ccc(C)c(N=Nc3cc(C)c(N)cc3N)c2)c(N)cc1N ?
TRUE

Status in this test for COc1ccc([C@H]2C[C@@H](O)[C@H](n3cc(COC(=O)c4ccccc4)nn3)CN2CC2CCCCC2)cc1 ?
TRUE

Status in this test for COc1ccc([C@H]2C[C@H](O)[C@@H](n3cc(COC(=O)c4ccccc4)nn3)CN2CC2CCCCC2)cc1 ?
TRUE

Status in this test for COc1ccc(C2C3=C(CCCC3=O)N(CC(=O)O)C3=C2C(=O)CCC3)cc1 ?
FALSE

Status in this test for COc1ccc(C2CC(c3ccccc3)=NN2c2ccc(C(N)=O)cc2)cc1 (configuration not stated) ?
FALSE

* * *

Target: Ataxin-2 (Homo sapiens)
Assay: qHTS for Inhibitors of ATXN expression.
Assay type: functional
In all, about 400,000 compounds went through this assay and about 2,100 (0.53%) were called active. Roughly 14% stayed inconclusive and do not appear here. No rule for the calls is given here. The list comes from a sample in which actives are over-represented; it also holds close analogues and randomly drawn compounds.
Write down the outcome that applies. Available outcomes: yes (1) for active, no (0) for inactive

Status in this test for Cc1c(C#N)c2n(c1C)CCCC(=O)N2 ?
no (0)

Status in this test for CC1CCN(Cc2c(O)ccc3c2O/C(=C\c2ccco2)C3=O)CC1 ?
no (0)

Status in this test for Fc1ccc(-n2cc(-c3ccccc3)c3c(S)ncnc32)cc1 ?
yes (1)

Status in this test for O=C(CN(C(=O)CCC(=O)Nc1nccs1)c1ccccc1F)NCc1ccc(F)cc1 ?
no (0)

Status in this test for Oc1c(Cl)cc(Cl)cc1/C=N\c1cc(C(F)(F)F)ccc1N1CCc2ccccc2C1 ?
no (0)

Status in this test for CC(=O)OCCn1c2nc(=O)[nH]c(=O)c-2nc2cc(C)c(C)cc21 ?
no (0)

Origin of the recorded values: ChEMBL document CHEMBL1201862
